- target: 10E8-iGL3 antibody (fully germline-reverted 10E8)
- experimental.protocol: SPR
- settings: chain shown with the change;; read off a plot
pKd: −log10 of the molar value.

binder | pKd
MPER (scaffold without germline-targeting mutations) 10E8-GT11 (substitutions not printed in the panel; sequence in Extended Data Fig. 1h) (protein) VTQEDIIRALASPLIKDGMVDEDFAEKVIEQESRYPTGLQAKGVGVAIPHTLGDYVRDNAISVGILDKPVNFEGWYQSPDPVPVRVVFMLAIRTWDDIVNVLNWIKDVILDEEFMKRLLTMSDEEIYRQIYTRISKAPQLSGIHFKREYVRHLG | 4.70
MPER (scaffold without germline-targeting mutations) 10E8-GT12 (substitutions not printed in the panel; sequence in Extended Data Fig. 1h) (protein) ETGNVTQEDIIRALASPLIKDGMVDEDFAEKVIENESRYPSGLQAKGVGFAIPHVLGDYVRDNAISVGILDKPVNFSEWYQSPDPVPVRVVFMLAIRTWDDITNVMNWIKDVVLDEEFMKRLLNMSDEEIYRQIYTRISKAPNLSGINFSREYVRHLNGS | 5.74
MPER (scaffold without germline-targeting mutations) 10E8-GT10.2 (substitutions not printed in the panel; sequence in Extended Data Fig. 1h) (protein) NVTQEDIIRALASPLIKDGMVDEDFAEYVIARENRSPTGLQAKGVGVAIPHTLGDYVRDNAISVGILDKPVNFSGWYQSPDPVPVRVVFMLAGRTWDDIVIVLKWIKDVILDEEFMKRLLNMSDEEIYRQIYTRISKAPNLSGINFSREYVRHLN | 4.96
10E8-GT9.2 epitope scaffold P41Q (protein) EVTQEDIIRALASPLIKDGMVDEDFAEYVIEREKRSPTGLQVKGVGVAIPHTLGEYVRDNAISVGILDKPVNFEGWYQSPDPVPVRVVFMLAGRTWDDIVNVLKWIKDVILDEEFMKRLLTMSDEEIYRQIYTRISKAPGMRGIHFKREYVRHLG | 5.10
